B1: Twister Ribozyme (parent)
chain: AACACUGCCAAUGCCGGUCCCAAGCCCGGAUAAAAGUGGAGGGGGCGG

# Variants of: B1
# experiment.notes: self-cleavage, relative activity (ratio to wild type); higher = more cleavage; co-transcriptional
Decide using self-cleavage: a value greater than or equal to 0.3 is true (1), a smaller one is false (0).

{"variant.id": "G17U U18G", "category.label": "false (0)"}
{"variant.id": "G17A G43U", "category.label": "false (0)"}
{"variant.id": "U6C A33U", "category.label": "true (1)"}
{"variant.id": "C3G G48U", "category.label": "true (1)"}
{"variant.id": "U12C A22U", "category.label": "true (1)"}
{"variant.id": "G13A C20G", "category.label": "false (0)"}
{"variant.id": "C5U G28U", "category.label": "true (1)"}
{"variant.id": "G7U G39C", "category.label": "false (0)"}
{"variant.id": "G36U G38C", "category.label": "false (0)"}
{"variant.id": "C8A C21U", "category.label": "false (0)"}
{"variant.id": "G44C G48C", "category.label": "false (0)"}
{"variant.id": "C9A G43A", "category.label": "false (0)"}
{"variant.id": "A32G G39C", "category.label": "false (0)"}
{"variant.id": "G7U A32U", "category.label": "false (0)"}
{"variant.id": "U18A A30C", "category.label": "false (0)"}
{"variant.id": "G29U G42U", "category.label": "false (0)"}
{"variant.id": "U6A G44C", "category.label": "true (1)"}
{"variant.id": "A30C A33G", "category.label": "true (1)"}
{"variant.id": "C26U G42A", "category.label": "false (0)"}
{"variant.id": "C27G A30U", "category.label": "false (0)"}
{"variant.id": "U12G G48C", "category.label": "true (1)"}
{"variant.id": "A22G G39C", "category.label": "false (0)"}
{"variant.id": "A11C U37G", "category.label": "true (1)"}
{"variant.id": "A22C G28C", "category.label": "true (1)"}
{"variant.id": "A4C C5U", "category.label": "true (1)"}
{"variant.id": "C9A G41C", "category.label": "false (0)"}
{"variant.id": "C3A C9A", "category.label": "false (0)"}
{"variant.id": "G17U C27U", "category.label": "false (0)"}
{"variant.id": "G16U C25A", "category.label": "false (0)"}
{"variant.id": "C15A A35U", "category.label": "true (1)"}
{"variant.id": "C8U A22C", "category.label": "true (1)"}
{"variant.id": "A2C A32U", "category.label": "false (0)"}
{"variant.id": "A2C C8U", "category.label": "false (0)"}
{"variant.id": "C25G G36A", "category.label": "false (0)"}
{"variant.id": "G24U A40G", "category.label": "false (0)"}
{"variant.id": "A2U G7U", "category.label": "false (0)"}
{"variant.id": "C9U A11C", "category.label": "true (1)"}
{"variant.id": "C27U A32C", "category.label": "true (1)"}
{"variant.id": "A1U U6G", "category.label": "false (0)"}
{"variant.id": "A1U A33G", "category.label": "false (0)"}
{"variant.id": "G36U G47A", "category.label": "false (0)"}
{"variant.id": "A4U G24U", "category.label": "false (0)"}
{"variant.id": "G7A G39U", "category.label": "false (0)"}
